# System: Gram positive anaerobic and facultative anaerobic pathogens
# Test details: microbe, parasite or virus in culture
# Assay type: cell-based
# Condition set: Streptococcus constellatus, ATCC27823
Field: MIC. Provide a value for each of the molecules that follow.

Guide cases for MIC, answers given:
C[C@@H]1CN(c2c(F)c(N)c3c(=O)c(C(=O)O)cn(C4CC4)c3c2F)C[C@H](C)N1: 0.5 µg/mL
CO/N=C1\CN(c2nc3c(cc2F)c(=O)c(C(=O)O)cn3C2CC2)CC1CN (racemic): ≤ 0.03 µg/mL
C[C@@H](O)[C@H]1C(=O)N2C(C(=O)O)=C(SCCN=CN)C[C@H]12: 0.25 µg/mL

Pending molecule:
Entry N[C@@H]1[C@H]2CN(c3nc4c(cc3F)c(=O)c(C(=O)O)cn4-c3ccc(F)cc3F)C[C@@H]12 : reported MIC = ? 0.125 µg/mL

====

# Tested on: Haemophilus influenzae
# Test details: MIC by two-fold serial agar dilution, Sensitivity Disk agar-N (Kitasato isolates)
# Type: cell-based
# Condition set: Haemophilus influenzae (24)
Quantity: MIC90 (µg/mL)
Answers are plain numbers, in µg/mL.

CO/N=C(\C(=O)N[C@@H]1C(=O)N2C(C(=O)O)=C(/C=C\c3scnc3C)CS[C@H]12)c1csc(N)n1: 0.031
N[C@@H]1[C@H]2CN(c3nc4c(cc3F)c(=O)c(C(=O)O)cn4-c3ccc(F)cc3F)C[C@@H]12: 0.031
CC1(C)S[C@@H]2[C@H](NC(=O)[C@H](N)c3ccc(O)cc3)C(=O)N2[C@H]1C(=O)O: 64

Okay, here is my list. What is MIC90 for each of these?
1. C[C@H]1COc2c(N3CCN(C)CC3)c(F)cc3c(=O)c(C(=O)O)cn1c23
2. C[C@@H]1CN(c2c(F)c(N)c3c(=O)c(C(=O)O)cn(C4CC4)c3c2F)C[C@H](C)N1
3. CO/N=C1\CN(c2nc3c(cc2F)c(=O)c(C(=O)O)cn3C2CC2)CC1CN (racemic)

1: 0.031; 2: 0.031; 3: 0.016

====

# Tested on: Streptococcus pneumoniae
# Test details: MIC by NCCLS reference broth microdilution, 450 respiratory tract pathogens
# Type: cell-based
# Condition set: Streptococcus pneumoniae, penicillin susceptible (n = 20)
Quantity: log10 of MIC90 (log10 of the value in µg/mL)
Quick note: numbers are log10 of MIC90, with µg/mL as the unit.

The cases that follow already have their log10 of MIC90 on record.
N[C@@H]1[C@H]2CN(c3nc4c(cc3F)c(=O)c(C(=O)O)cn4-c3ccc(F)cc3F)C[C@@H]12: -0.92
CO/N=C(\C(=O)N[C@@H]1C(=O)N2C(C(=O)O)=C(COC(N)=O)CS[C@H]12)c1ccco1: -1.82
C[C@@H]1CN(c2c(F)c(N)c3c(=O)c(C(=O)O)cn(C4CC4)c3c2F)C[C@H](C)N1: -0.60

For every listed record, write down its log10 of MIC90.
1. CO/N=C1\CN(c2nc3c(cc2F)c(=O)c(C(=O)O)cn3C2CC2)CC1CN (racemic)
2. C[C@H]1COc2c(N3CCN(C)CC3)c(F)cc3c(=O)c(C(=O)O)cn1c23
3. NC1CCN(c2c(F)cc3c(=O)c(C(=O)O)cn(C4CC4)c3c2Cl)C1 (stereo not drawn)

-1.52
0.00
-0.92

====

# Test system: Klebsiella pneumoniae
# Test details: MIC by agar dilution (NCCLS), 322 nosocomial Gram negative isolates, Athens 1998
# Type: cell-based
# Condition set: Klebsiella pneumoniae; n = 56 isolates
Label True when MIC90 is strictly below 1 µg/mL; otherwise label False.

Answered cases to consult:
CO[C@@]1(NC(=O)Cc2cccs2)C(=O)N2C(C(=O)O)=C(COC(N)=O)CS[C@@H]21 [Cefoxitin]: False
CO/N=C(\C(=O)N[C@@H]1C(=O)N2C(C(=O)[O-])=C(C[N+]3(C)CCCC3)CS[C@H]12)c1csc(N)n1 [Cefepime]: False

I wonder whether O=C(O)c1cn(C2CC2)c2cc(N3CCNCC3)c(F)cc2c1=O [Ciprofloxacin, ciprofloxacin] has MIC90 below 1 µg/mL. Can you tell? True

Hello, is MIC90 of the following compound strictly smaller than 1 µg/mL? CCN1CCN(C(=O)N[C@@H](C(=O)N[C@@H]2C(=O)N3[C@@H]2SC(C)(C)[C@@H]3C(=O)O)c2ccccc2)C(=O)C1=O [Piperacillin] False

Identify whether the compound CO/N=C1\CN(c2nc3c(cc2F)c(=O)c(C(=O)O)cn3C2CC2)CC1CN (racemic) [Gemifloxacin] records MIC90 below 1 µg/mL. True

MIC90 strictly < 1 µg/mL for this compound? C[C@@H](O)[C@H]1C(=O)N2C(C(=O)O)=C(S[C@@H]3CN[C@H](C(=O)N(C)C)C3)[C@H](C)[C@H]12 [Meropenem] True

Take the compound CC(C)(O/N=C(\C(=O)N[C@@H]1C(=O)N2C(C(=O)[O-])=C(C[n+]3ccccc3)CS[C@H]12)c1csc(N)n1)C(=O)O [Ceftazidime] and say whether its MIC90 is less than 1 µg/mL. False

====

# Test system: Streptococcus pneumoniae
# Test details: MIC by NCCLS broth microdilution, 1100 Japanese clinical isolates 1997-1998
# Assay type: cell-based
# Condition set: Streptococcus pneumoniae, Streptococcus pneumoniae erythromycin resistant (n=34); read-out: MIC50
Quantity: MIC50 (µg/mL)
Numbers only, in µg/mL.

Please review the entries below; each comes with its answer.
N[C@@H]1[C@H]2CN(c3nc4c(cc3F)c(=O)c(C(=O)O)cn4-c3ccc(F)cc3F)C[C@@H]12 [Trovafloxacin, trovafloxacin]: 0.063
C[C@H]1COc2c(N3CCN(C)CC3)c(F)cc3c(=O)c(C(=O)O)cn1c23 [Levofloxacin, levofloxacin]: 1
CO/N=C1\CN(c2nc3c(cc2F)c(=O)c(C(=O)O)cn3C2CC2)CC1CN (racemic) [Gemifloxacin]: 0.016

Provide MIC50 values for the following items, in order.
1. NC1CCN(c2nc3c(cc2F)c(=O)c(C(=O)O)cn3-c2ccc(F)cc2F)C1 (centres unmarked) [Tosufloxacin, tosufloxacin]
2. C[C@@H]1CN(c2c(F)c(N)c3c(=O)c(C(=O)O)cn(C4CC4)c3c2F)C[C@H](C)N1 [Sparfloxacin, sparfloxacin]

0.25
0.25

====

Could you please report measured log10(MIC50) for the items listed next?
# Test system: Streptococcus pneumoniae
# Test details: MIC by two-fold serial agar dilution, Sensitivity Disk agar-N (Kitasato isolates)
# Type: cell-based
# Condition set: Streptococcus pneumoniae, Ciprofloxacin-resistant (21); read-out: MIC50
Note: values are log10 of MIC50 expressed in µg/mL.

C[C@H]1COc2c(N3CCN(C)CC3)c(F)cc3c(=O)c(C(=O)O)cn1c23: 1.20
N[C@@H]1[C@H]2CN(c3nc4c(cc3F)c(=O)c(C(=O)O)cn4-c3ccc(F)cc3F)C[C@@H]12: 0.30
CO/N=C1\CN(c2nc3c(cc2F)c(=O)c(C(=O)O)cn3C2CC2)CC1CN (racemic): -0.60

Items follow; give log10(MIC50) for each.
1. NC1CCN(c2nc3c(cc2F)c(=O)c(C(=O)O)cn3-c2ccc(F)cc2F)C1 (stereo not shown)
2. CC1(C)S[C@@H]2[C@H](NC(=O)[C@H](N)c3ccc(O)cc3)C(=O)N2[C@H]1C(=O)O
3. C[C@@H]1CN(c2c(F)c(N)c3c(=O)c(C(=O)O)cn(C4CC4)c3c2F)C[C@H](C)N1

0.60
-1.80
0.60

====

# Test system: Hafnia alvei
# Test details: MIC by agar dilution (NCCLS M7-A4), 288 enteropathogenic isolates, eight quinolones
# Assay type: cell-based
# Condition set: Hafnia alvei (n = 32)
Answer each item with its documented MIC90.

Sample answers from the record:
CCn1cc(C(=O)O)c(=O)c2cc(F)c(N3CCNCC3)cc21: 0.03 µg/mL
CC1COc2c(N3CCN(C)CC3)c(F)cc3c(=O)c(C(=O)O)cn1c23 (stereo not drawn): 0.03 µg/mL
C[C@H]1COc2c(N3CCN(C)CC3)c(F)cc3c(=O)c(C(=O)O)cn1c23: 0.03 µg/mL
CO/N=C1\CN(c2nc3c(cc2F)c(=O)c(C(=O)O)cn3C2CC2)CC1CN (racemic): 0.03 µg/mL
N[C@@H]1[C@H]2CN(c3nc4c(cc3F)c(=O)c(C(=O)O)cn4-c3ccc(F)cc3F)C[C@@H]12: 0.06 µg/mL

Now consider a different molecule.
Suppose we examine the molecule Cc1c(F)c(N2CCNC(C)C2)cc2c1c(=O)c(C(=O)O)cn2C1CC1 (stereo not drawn) ; what MIC90 value has been reported? 0.06 µg/mL

====

# Test system: Gram negative anaerobic pathogens and facultative anaerobic pathogens
# Test details: MIC by agar dilution, Brucella HK agar with 5% laked sheep blood, anaerobic reference strains
# Type: cell-based
# Condition set: Parabacteroides distasonis, ATCC8503, Bacteroides distasonis ATCC8503; read-out: MIC
I'd appreciate it if you could supply MIC values for the items below.
Answers are plain numbers, in µg/mL.

C[C@@H]1CN(c2c(F)c(N)c3c(=O)c(C(=O)O)cn(C4CC4)c3c2F)C[C@H](C)N1: 2
N[C@@H]1[C@H]2CN(c3nc4c(cc3F)c(=O)c(C(=O)O)cn4-c3ccc(F)cc3F)C[C@@H]12: 0.5
C[C@@H](O)[C@H]1C(=O)N2C(C(=O)O)=C(SCCN=CN)C[C@H]12: 1

I would be grateful if you could share the reported MIC for CO/N=C1\CN(c2nc3c(cc2F)c(=O)c(C(=O)O)cn3C2CC2)CC1CN (racemic) . 0.25
